- TEST SYSTEM: PAR2 (HT-29 cells) (Homo sapiens, UniProt P55085)
- Construct: host or cells: HT-29
- Sequence (P55085 26-397): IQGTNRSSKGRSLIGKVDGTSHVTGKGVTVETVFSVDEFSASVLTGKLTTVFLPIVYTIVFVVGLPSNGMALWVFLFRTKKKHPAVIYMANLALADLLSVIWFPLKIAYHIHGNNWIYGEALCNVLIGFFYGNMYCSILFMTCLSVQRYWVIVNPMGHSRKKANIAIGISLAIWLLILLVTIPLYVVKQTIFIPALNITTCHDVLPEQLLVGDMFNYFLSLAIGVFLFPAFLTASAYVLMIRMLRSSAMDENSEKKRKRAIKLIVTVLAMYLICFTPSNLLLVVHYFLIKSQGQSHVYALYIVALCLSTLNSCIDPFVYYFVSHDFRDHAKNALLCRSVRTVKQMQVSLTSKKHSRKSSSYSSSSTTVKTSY
- PROTOCOL NOTES: Ca FLIPR TETRA assay, ANTAGONIST mode, activator 3.1 U/mL trypsin
- Format: cell-based
- CONDITIONS: HT-29 cells, activator 3.1 U/mL trypsin; maximal antagonist concentration per Method (A: 0.1, 1 or 2 μM; B: 50 μM)
OBSERVABLE: IC50 (nM)

Solved cases (3 shown):
| MOLECULE | OBSERVABLE | UNIT | RECORDED VALUE |
| --- | --- | --- | --- |
| CCC(C)c1cc(-c2ccc(F)cc2)nc2cc(C(=O)N3CCNC(=O)C3(C)C)oc12 (stereo not shown) | IC50 | nM | 5 |
| Cc1nnc(C(=O)N2CCN(C(=O)c3cc4nc(-c5ccc(C(F)(F)F)cc5)cc(C(C)(C)C)c4o3)C(C)(C)C2)o1 | IC50 | nM | 16 |
| C[C@H]1CN(C(=O)c2cc3nc(-c4ccc(F)cc4)cc(C4(C)CC4)c3o2)CCN1C(=O)c1ccn[nH]1 | IC50 | nM | 330 |

[I] Cc1nnc(C(=O)N2CCN(C(=O)c3cc4nc(-c5ccc(Cl)cc5)cc(C(C)(C)C)c4o3)C(C)(C)C2)[nH]1
[II] Cc1ccnc(N2CCN(C(=O)c3cc4nc(-c5ccc(Cl)c(F)c5)cc(C(C)(C)C)c4o3)C(C)(C)C2=O)n1
q: Hi, I'm comparing I with II and wondering which one has the bigger number for IC50. Any idea? Select an item and report its label.
a: II
(II: 1.8 nM, I: 1 nM)

[1] CC(C)c1cc(-c2ccc(F)cc2)nc2cc(C(=O)N3CCN(C(=O)[C@H]4C[C@@H](O)C4)CC3(C)C)oc12
[2] CC#CC(=O)N1CCN(C(=O)c2cc3nc(-c4ccc(F)cc4)cc(C(C)C)c3o2)C(C)(C)C1
q: Hi, I'm comparing 1 with 2 and wondering which one has the bigger number for IC50. Any idea? Select an item and report its label.
a: 1
(1: 42 nM, 2: 10 nM)

----------
- TEST SYSTEM: PAR2 (HT-29 cells) (Homo sapiens, UniProt P55085)
- Construct: host or cells: HT-29
- PROTOCOL NOTES: Ca FLIPR TETRA assay, ANTAGONIST mode, activator 3.1 U/mL trypsin
- Assay type: cell-based
- CONDITIONS: HT-29 cells, activator 3.1 U/mL trypsin; maximal antagonist concentration per Method (A: 0.1, 1 or 2 μM; B: 50 μM)
OBSERVABLE: IC50 (nM)

[I] CC(C)c1cc(-c2ccc(F)cc2)nc2cc(C(=O)N3CCN(C(=O)[C@H]4C[C@@](O)(C(F)(F)F)C4)CC3(C)C)oc12
[II] C[C@H]1CN(C(=O)c2cc3nc(-c4ccc(F)cc4)cc(C4(C)CC4)c3o2)CCN1C(=O)C1(O)CCOCC1
[III] C[C@H]1CN(C(=O)c2cc3nc(-c4ccc(F)cc4)cc(C4(C)CC4)c3o2)CCN1C(=O)C1(C)CC1
q: Sort the 3 molecules by IC50; largest first, smallest last. # output: labels, in the requested order
a: II, III, I
(II: 1800 nM, III: 780 nM, I: 9.4 nM)

----------
- TEST SYSTEM: PAR2 (HT-29 cells) (Homo sapiens, UniProt P55085)
- Construct: host or cells: HT-29
- PROTOCOL NOTES: Ca FLIPR TETRA assay, ANTAGONIST mode, activator 3.1 U/mL trypsin
- Type: cell-based
- CONDITIONS: HT-29 cells, activator 3.1 U/mL trypsin; maximal antagonist concentration per Method (A: 0.1, 1 or 2 μM; B: 50 μM)
pIC50: −log10 of the molar value.
OBSERVABLE: pIC50

| MOLECULE | RECORDED VALUE |
| --- | --- |
| CC(C)(C)c1cc(-c2ccc(Cl)c(F)c2)nc2cc(C(=O)N3CCN(c4nc(C(=O)O)co4)CC3(C)C)oc12 [Example I-289] | 9.52 |

[a] CC(C)(C)c1cc(-c2ccc(Cl)c(F)c2)nc2cc(C(=O)N3CCN(c4nc(C(=O)O)co4)CC3(C)C)oc12 [Example I-290]
[b] CC(C)c1cc(-c2ccc(F)cc2)nc2cc(C(=O)N3CCN(C(=O)[C@H]4CCCO4)CC3(C)C)oc12 [Example I-75]
q: Returns the identifier with the smallest measured pIC50 among a and b . Select an item and report its label.
a: b
(b: 6.85, a: 8.21)

----------
- TEST SYSTEM: PAR2 (HT-29 cells) (Homo sapiens, UniProt P55085)
- Construct: host or cells: HT-29
- PROTOCOL NOTES: Ca FLIPR TETRA assay, ANTAGONIST mode, activator 8 μM SLIGKV
- Format: cell-based
- CONDITIONS: HT-29 cells; activator 8 μM SLIGKV; Method A: maximal concentration of antagonist 0.1, 1 or 2 μM
pIC50: −log10 of the molar value.
OBSERVABLE: pIC50

Solved cases (3 shown):
| MOLECULE | OBSERVABLE | RECORDED VALUE |
| --- | --- | --- |
| CC1(C)CCC(c2cc(C(C)(C)C)c3oc(C(=O)N4CCN(c5ccnc(C(=O)O)n5)CC4(C)C)cc3n2)CC1 | pIC50 | 8.07 |
| CC1(C)CCC(c2cc(C(C)(C)C)c3oc(C(=O)N4CCN(C(=O)C5CC6(CC(C(=O)O)C6)C5)CC4(C)C)cc3n2)CC1 (stereo not drawn) | pIC50 | 8.92 |
| Cc1n[nH]c(C(=O)N2CCN(C(=O)c3cc4nc(C5CCC(Cl)(Cl)CC5)cc(C(C)(C)C)c4o3)C(C)(C)C2)n1 | pIC50 | 8.70 |

[a] CC(C)(C)c1cc(-c2ccc(Cl)c(F)c2)nc2cc(C(=O)N3CCN(c4ccncc4)C(=O)C3(C)C)oc12
[b] CC1(C)CCC(c2cc(C(C)(C)C)c3oc(C(=O)N4CCN(C(=O)[C@H]5CC[C@](C)(C(=O)O)CC5)CC4(C)C)cc3n2)CC1
q: Returns the identifier with the smallest measured pIC50 among a and b . Select an item and report its label.
a: a

----------
- TEST SYSTEM: PAR2 (HT-29 cells) (Homo sapiens, UniProt P55085)
- Construct: host or cells: HT-29
- Sequence (P55085 26-397): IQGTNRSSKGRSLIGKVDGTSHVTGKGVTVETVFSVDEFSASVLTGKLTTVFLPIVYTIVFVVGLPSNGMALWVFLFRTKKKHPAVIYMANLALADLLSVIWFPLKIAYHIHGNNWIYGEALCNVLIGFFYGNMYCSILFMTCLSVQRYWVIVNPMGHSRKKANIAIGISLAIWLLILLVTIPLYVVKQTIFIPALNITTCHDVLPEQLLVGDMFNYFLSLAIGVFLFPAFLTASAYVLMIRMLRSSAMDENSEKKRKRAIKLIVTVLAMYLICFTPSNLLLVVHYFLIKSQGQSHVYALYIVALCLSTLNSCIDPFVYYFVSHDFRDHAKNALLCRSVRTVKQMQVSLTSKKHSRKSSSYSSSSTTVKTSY
- PROTOCOL NOTES: Ca FLIPR TETRA assay, ANTAGONIST mode, activator 8 μM SLIGKV
- Type: cell-based
- CONDITIONS: HT-29 cells, activator 8 μM SLIGKV; maximal antagonist concentration per Method (A: 0.1, 1 or 2 μM; B: 50 μM)
OBSERVABLE: IC50 (nM)

Solved cases (6 shown):
| MOLECULE | IC50, nM |
| --- | --- |
| CC(C)(C)c1cc(-c2ccc(F)cc2)nc2cc(C(=O)N3CCN(C(=O)C45CC(C(=O)O)(C4)C5)CC3(C)C)oc12 [Example I-191] | 403 |
| CC1(c2cc(-c3ccc(F)cc3)nc3cc(C(=O)N4CCNC(=O)C4(C)C)oc23)CC1 [Example I-25] | 14 |
| CC(C)c1cc(-c2ccc(F)cc2)nc2cc(C(=O)N3CCN(C(=O)[C@H]4C[C@@](O)(C(F)(F)F)C4)CC3(C)C)oc12 [Example I-137] | 7.8 |
| CC(C)c1cc(-c2ccc(F)cc2)nc2cc(C(=O)N3CCN(C(=O)c4ccn(C)n4)CC3(C)C)oc12 [Example I-141] | 3.2 |
| CC1(C(=O)N2CCN(C(=O)c3cc4nc(-c5ccc(F)cc5)cc(C5(C)CC5)c4o3)C(C)(C)C2)CCCCC1 [Example I-43] | 6.9 |
| CC(C)(C)c1cc(-c2ccc(Cl)cc2)nc2cc(C(=O)N3CCN(c4ccccn4)CC3(C)C)oc12 [Example I-272] | 21 |

[I] CC(C)c1cc(-c2ccc(F)cc2)nc2cc(C(=O)N3CCN(C(=O)C(C)(C)C)CC3(C)C)oc12 [Example I-14]
[II] COC(=O)c1cccc(N2CCN(C(=O)c3cc4nc(-c5ccc(Cl)c(F)c5)cc(C(C)(C)C)c4o3)C(C)(C)C2)n1 [Example I-268]
[III] CC(C)(C)c1cc(-c2ccc(F)cc2)nc2cc(C(=O)N3CCN(C(=O)[C@H]4C[C@@H]4C(=O)O)CC3(C)C)oc12 [Example I-197]
q: Rank descending by IC50. # output: labels, in the requested order
a: III, II, I

[I] CC(C)(C)c1cc(C2CCCC2)nc2cc(C(=O)N3CCNC(=O)C3(C)C)oc12 [Example I-215]
[II] CC(C)(C)c1cc(-c2ccc(Cl)c(F)c2)nc2cc(C(=O)N3CCN(C(=O)c4ncn[nH]4)CC3(C)C)oc12 [Example I-181]
[III] CC1(O)CC(C(=O)C2CCN(C(=O)c3cc4nc(-c5ccc(F)cc5)cc(C5(C#N)CC(F)(F)C5)c4o3)C(C)(C)C2)C1 (centres unmarked) [Example I-204]
[IV] CC1(c2cc(-c3ccc(F)cc3)nc3cc(C(=O)N4CCN(C(=O)C(C)(O)C(F)(F)F)CC4(C)C)oc23)CC1 (centres unmarked) [Example I-39]
q: Rank descending by IC50. # output: labels, in the requested order
a: I, IV, III, II
